- Tested on: Cavia porcellus
- protocol.summary: In vivo inhibitory activity against LTB4-induced bronchoconstriction of guinea pig at dose of 5 mg/kg after 2 min of iv administration; Active
- Assay type: functional, organism-based
- Set-up: dose 5 mg/kg
Activity calls are given as the source filed them. No cut-off for these calls is given here.
measurement.type: Activity

Past entries and their recorded results:
>>> df
                            chemical_smiles  recorded_measurement
0  CCc1cc(C(C)=O)c(O)cc1OCc1cccc(C(=O)Nc2cccc(CC(=O)O)[n+]2[O-])n1                Active
1  CCc1cc(C(C)=O)c(O)cc1OCc1cncc(C(=O)Nc2nc(CC(=O)O)cs2)n1                Active
2  CCc1cc(C(C)=O)c(O)cc1OCc1cccc(C(=O)N(CC)CCC(=O)O)n1                Active
3  CCc1cc(C(C)=O)c(O)cc1OCc1cccc(C(=O)N[C@@H](CO)C(=O)O)n1                Active
4  CCc1cc(C(C)=O)c(O)cc1OCc1cccc(C(=O)N(CC)CCO)n1                Active

Problem: So what does the record say about Activity for CCc1cc(C(C)=O)c(O)cc1OCc1cccc(C(=O)NCCC(=O)O)n1 ?
Solution: Active
